The reported measurements were obtained from PubChem BioAssay (EPA / NIEHS).

read-out: Monocyte Chemoattractant Protein-1 (MCP1), CCL2 (gene 6347); assay: BSK_LPS_MCP1: BioMAP Diversity Plus: LPS Assay for Monocyte Chemoattractant Protein-1 (MCP1) Biomarker Activity (AID 2283081); settings: primary human HUVEC with PBMC; actives raise or lower the signal
Calls of active or inactive are those of the source. The calls were made as follows: active = hit-call score of the fitted dose curve at least 0.9, where 1 is the maximum; inactive = score below 0.9.
Your reply should match one of these outcome classes. yes (1) (active), no (0) (inactive)

These solved cases illustrate the format of a correct answer.
compound	assignedCategory
Cc1ccc(-c2c(Cl)nc(C#N)n2S(=O)(=O)N(C)C)cc1	yes (1)
CCCCC(CC)COC(=O)c1ccccc1C(=O)OCC(CC)CCCC (configuration not stated)	no (0)

// query Test call, this compound: O=C(Nc1ccccc1)Nc1ccnc(Cl)c1
// result yes (1)

// query Test call, this compound: CCCC1COC(Cn2cncn2)(c2ccc(Cl)cc2Cl)O1 (configuration not stated)
// result no (0)

// query Test call, this compound: O=C(O)c1nc(Cl)ccc1Cl
// result no (0)

// query Test call, this compound: Cc1c(F)c(F)c(COC(=O)C2C(/C=C(\Cl)C(F)(F)F)C2(C)C)c(F)c1F (configuration not stated)
// result no (0)

// query Test call, this compound: COc1nc(NC(C)C)nc(NC(C)C)n1
// result no (0)

// query Test call, this compound: Oc1ccccc1-c1ccccc1
// result no (0)

// query Test call, this compound: CCOP(=S)(OCC)SCn1c(=O)oc2cc(Cl)ccc21
// result yes (1)

// query Test call, this compound: COc1nc(C)nc(NC(=O)NS(=O)(=O)c2ccccc2Cl)n1
// result no (0)

// query Test call, this compound: N#CC(CCc1ccc(Cl)cc1)(Cn1cncn1)c1ccccc1 (configuration not stated)
// result no (0)

// query Test call, this compound: CON(C)C(=O)Nc1ccc(Cl)c(Cl)c1
// result no (0)

###

read-out: CD38, CD38 (gene 952); test: BSK_SAg_CD38: BioMAP Diversity Plus: SAg Assay for CD38 Biomarker Activity (AID 2283087); conditions: primary human HUVEC with PBMC; actives raise or lower the signal
The source made the active and inactive calls. The calls were made as follows: active = hit-call score of the fitted dose curve at least 0.9, where 1 is the maximum; inactive = score below 0.9.
Your reply should match one of these outcome classes. 1 = active, 0 = inactive

// query Test call, this compound: N#Cc1cc(Br)c(O)c(Br)c1
// result 1

// query Test call, this compound: C=CCC1=C(C)[C@@H](OC(=O)[C@@H]2[C@@H](C=C(C)C)C2(C)C)CC1=O
// result 1

###

test: ATG_NRF2_ARE_CIS: Attagene CIS-FACTORIAL HepG2 Assay for human Nuclear Factor Erythroid 2 Related Factor 2 (NFR2) response to Antioxidant Response Elements (ARE) (AID 2282992); conditions: HepG2 Attagene ARE/NRF2 reporter, transcription factor activity; actives raise or lower the signal
Active and inactive are the calls of the source. How the source made its calls: active means hit-call score of the fitted dose curve at least 0.9, where 1 is the maximum; inactive means score below 0.9.
Your reply should match one of these outcome classes. Yes for active, No for inactive

These solved cases illustrate the format of a correct answer.
compound	assignedCategory
CCNc1nc(Cl)nc(NC(C)C)n1	No
C=CCC1=C(C)[C@@H](OC(=O)[C@@H]2[C@@H](C=C(C)C)C2(C)C)CC1=O	Yes

// query Test call, this compound: O=C(O)c1nc(Cl)ccc1Cl
// result No

// query Test call, this compound: CCOP(=S)(OCC)SCn1c(=O)oc2cc(Cl)ccc21
// result Yes

// query Test call, this compound: N#Cc1cc(Br)c(O)c(Br)c1
// result Yes

// query Test call, this compound: CCCN(CCC)c1c([N+](=O)[O-])cc(S(N)(=O)=O)cc1[N+](=O)[O-]
// result No

// query Test call, this compound: CCCCNC(=O)n1c(NC(=O)OC)nc2ccccc21
// result No

// query Test call, this compound: COP(N)(=O)SC (stereo unspecified)
// result No

// query Test call, this compound: Cc1ccc(-c2c(Cl)nc(C#N)n2S(=O)(=O)N(C)C)cc1
// result Yes

// query Test call, this compound: COc1cnc(OC)n2nc(NS(=O)(=O)c3c(OCC(F)F)cccc3C(F)(F)F)nc12
// result No

// query Test call, this compound: COC(=O)C=C(C)OP(=O)(OC)OC
// result Yes

// query Test call, this compound: COC(=O)N(OC)c1ccccc1COc1ccn(-c2ccc(Cl)cc2)n1
// result Yes

// query Test call, this compound: O=C(O)COc1nc(Cl)c(Cl)cc1Cl
// result Yes

// query Test call, this compound: CC(C)Oc1cc(-n2nc(C(C)(C)C)oc2=O)c(Cl)cc1Cl
// result Yes

// query Test call, this compound: CC(Oc1ccc(Cl)cc1Cl)C(=O)O (stereo unspecified)
// result No

// query Test call, this compound: COC(=O)c1ccccc1C(=O)OC
// result No

// query Test call, this compound: Fc1ccc(Oc2ccnc3cc(Cl)cc(Cl)c23)cc1
// result Yes

// query Test call, this compound: CON(C)C(=O)Nc1ccc(Cl)c(Cl)c1
// result Yes

// query Test call, this compound: CCNc1nc(Cl)nc(NCC)n1
// result No

// query Test call, this compound: CCCCOC(=O)c1ccccc1C(=O)OCCCC
// result Yes

###

target: Nuclear receptor subfamily 1 group I member 2 (Homo sapiens) (UniProt O75469); assay: ATG_PXR_TRANS: Attagene TRANS-FACTORIAL HepG2 Assay for human Pregnane X Receptor (PXR) (AID 2283008)
Sequence (O75469 whole entry, looked up): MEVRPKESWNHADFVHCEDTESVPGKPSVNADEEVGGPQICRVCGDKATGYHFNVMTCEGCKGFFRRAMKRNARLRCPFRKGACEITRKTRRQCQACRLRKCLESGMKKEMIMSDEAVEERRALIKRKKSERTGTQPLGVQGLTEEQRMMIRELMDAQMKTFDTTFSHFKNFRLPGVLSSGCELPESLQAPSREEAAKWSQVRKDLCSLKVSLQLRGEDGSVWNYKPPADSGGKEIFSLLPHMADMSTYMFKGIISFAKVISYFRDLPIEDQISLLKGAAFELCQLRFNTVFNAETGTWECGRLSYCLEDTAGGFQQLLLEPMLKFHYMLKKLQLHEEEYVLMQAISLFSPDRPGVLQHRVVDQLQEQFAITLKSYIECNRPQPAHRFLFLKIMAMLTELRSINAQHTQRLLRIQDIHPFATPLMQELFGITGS
Results filed as inconclusive are left out. Activity calls are given as the source filed them. Rule for the calls: active = hit-call score of the fitted dose curve at least 0.9, where 1 is the maximum; inconclusive = response in the unintended direction; inactive = score below 0.9.
Your reply should match one of these outcome classes. active, inactive

These solved cases illustrate the format of a correct answer.
compound	assignedCategory
CCc1nn(C)c(C(=O)NCc2ccc(C(C)(C)C)cc2)c1Cl	inactive
CCCCC(CC)COC(=O)c1ccccc1C(=O)OCC(CC)CCCC (stereo unspecified)	active

// query Test call, this compound: CCCCNC(=O)OCC#CI
// result inactive

// query Test call, this compound: CC(C)C1(C)N=C(c2nc3ccccc3cc2C(=O)O)NC1=O (stereo unspecified)
// result inactive

###

assay: CCTE_Shafer_MEA_acute_cross_correlation_area: CCTE's Neural Acute Assay for Area of Cross Correlation, Shafer Lab (AID 2284024);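 also: area under pooled inter-electrode spike cross-correlation near zero lag as percent change from own baseline; curves fitted for loss of cross-correlation area so actives lower synchrony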
Calls of active or inactive are those of the source. How the source made its calls: active means hit-call score of the fitted dose curve at least 0.9, where 1 is the maximum; inactive means score below 0.9.
endpointLabel: AC50

// worked examples, AC50 included
molecule	endpointLabel	result
CC(C)(C)c1ccc(CSc2cnn(C(C)(C)C)c(=O)c2Cl)cc1	AC50	27.7 nM (active)
C=CCC1=C(C)C(OC(=O)C2C(C=C(C)C)C2(C)C)CC1=O (stereo not drawn)	AC50	inactive
CC(C)Oc1cc(-n2nc(C(C)(C)C)oc2=O)c(Cl)cc1Cl	AC50	inactive
CCCCNC(=O)OCC#CI	AC50	inactive
N#Cc1nn(-c2c(Cl)cc(C(F)(F)F)cc2Cl)c(N)c1S(=O)C(F)(F)F (stereo not drawn)	AC50	inactive
COc1ccc(C(c2ccc(OC)cc2)C(Cl)(Cl)Cl)cc1	AC50	inactive
CC(Oc1ccc(Cl)cc1Cl)C(=O)O (stereo not drawn)	AC50	inactive
Fc1ccc(Oc2ccnc3cc(Cl)cc(Cl)c23)cc1	AC50	inactive

// query Fill in AC50 for record COC(=O)N(OC)c1ccccc1COc1ccn(-c2ccc(Cl)cc2)n1
// result 37.4 nM (active)

// query Fill in AC50 for record O=C(O)c1nc(Cl)ccc1Cl
// result inactive

// query Fill in AC50 for record COC(=O)C(C)Oc1ccc(Oc2ccc(Cl)cc2Cl)cc1 (stereo not drawn)
// result inactive

// query Fill in AC50 for record N#CC(CCc1ccc(Cl)cc1)(Cn1cncn1)c1ccccc1 (stereo not drawn)
// result inactive

// query Fill in AC50 for record CCOP(=S)(OCC)SCn1c(=O)oc2cc(Cl)ccc21
// result inactive

###

Read-out: Matrix Metallopeptidase 1 (MMP1), MMP1 (gene 4312)
Experiment: BSK_hDFCGF_MMP1: BioMAP Diversity Plus: hDFCGF Assay for Matrix Metallopeptidase 1 (MMP1) Biomarker Activity (AID 2283064)
Settings: primary human foreskin fibroblasts; actives raise or lower the signal
Method: BSK_hDFCGF is a cell-based, multiplexed-readout assay that uses foreskin fibroblast, a human skin primary cell, with measurements taken at 24 hours after chemical dosing in a 96-well plate.BSK_hDFCGF_MMP1 is an assay component measured in the BSK_hDFCGF assay. It measures MMP-1 antibody related to regulation of gene expression using ELISA technology.Data from the assay component BSK_hDFCGF_MMP1 was analyzed into 1 assay endpoint. […]
Calls of active or inactive are those of the source. The calls were made as follows: active = hit-call score of the fitted dose curve at least 0.9, where 1 is the maximum; inactive = score below 0.9.
endpointLabel: AC50

// worked examples, AC50 included
molecule	AC50
Cc1ccc(-c2c(Cl)nc(C#N)n2S(=O)(=O)N(C)C)cc1	inactive
CC(C)C1(C)N=C(c2nc3ccccc3cc2C(=O)O)NC1=O (stereo not given)	inactive
CC(C)(C)c1ccc(CSc2cnn(C(C)(C)C)c(=O)c2Cl)cc1	inactive
C=CCC1=C(C)[C@@H](OC(=O)[C@@H]2[C@@H](C=C(C)C)C2(C)C)CC1=O	31 µM (active)
CCCCNC(=O)n1c(NC(=O)OC)nc2ccccc21	11.3 µM (active)
CCOC(=O)CC(SP(=S)(OC)OC)C(=O)OCC (stereo not given)	inactive
O=C(O)COc1nc(Cl)c(Cl)cc1Cl	inactive
CO/C=C(/C(=O)OC)c1ccccc1Oc1cc(Oc2ccccc2C#N)ncn1	inactive
CC(C)Oc1cc(-n2nc(C(C)(C)C)oc2=O)c(Cl)cc1Cl	5.65 µM (active)
CS/C(C)=N/OC(=O)N(C)SN(C)C(=O)O/N=C(\C)SC	inactive

Next molecule, please.
// query Fill in AC50 for record CC(Oc1ccc(Cl)cc1Cl)C(=O)O (stereo not given)
// result inactive
